- System: MAP4K5
- conditionParameters: concentration: 1 μM, replicates: in singlicate; n = 1;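 note: KINOMEscan kinase panel screen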
readoutType: %Inh (%)

| entrySmiles | unitString | value |
| --- | --- | --- |
| CC(=O)c1c(C)c2cnc(Nc3ccn(C)n3)nc2n(C2CCCC2)c1=O | % | 0 |
| Nc1cccc(-c2ccc3c(N)n[nH]c3c2)n1 | % | 0 |
| Fc1ccc(-c2nn3cccc(F)c3c2-c2ccncc2)cc1 | % | 24 |
| Cc1nccc(-c2c(-c3ccc(F)cc3)ncn2CCCN2CCOCC2)n1.Cl | % | 37 |
| c1ccc(-c2ccnc3[nH]ccc23)cc1 | % | 0 |
| Cc1c(Cn2c3ccccc3n3c(=O)cc(N4CCOCC4)nc23)cccc1C(F)(F)F | % | 8 |
| Cc1cnc(N)c(/C=C/c2cncc(C(=O)NCCc3ccc(Cl)cc3Cl)c2)c1.Cl | % | 18 |
| CS(=O)(=O)CCNCc1nc(-c2ccc3ncnc(Nc4ccc(OCc5ccccc5)c(Cl)c4)c3c2)cs1.Cl | % | 8 |
| CS(=O)(=O)Cc1ccc(Nc2nccc(-c3c(-c4cccc(NC(=O)C5CCCCC5)c4)nn4ncccc34)n2)cc1 | % | 10 |

* * *

%Inh: recorded values
- System: FLT4
- conditionParameters: concentration: 1 μM, replicates: in singlicate; n = 1

| entrySmiles | %Inh [%] |
| --- | --- |
| COc1nccc(-c2c(-c3ccc(F)cc3)ncn2CCCN2CCOCC2)n1 | 0 |
| Fc1ccc(-c2nc[nH]c2-c2ccncc2)cc1 | 9 |
| COc1cccc(NC(=O)Nc2ccc(C)c(-c3ccc(C(=O)Nc4ccncc4)cc3)c2)c1 | 41 |
| O=C(Nc1n[nH]c2nc(-c3cccs3)c(Br)cc12)C1CC1 | 0 |
| COc1ccc(CSc2nnc(-c3ccc4c(c3)CCO4)o2)cc1 | 0 |
| CS(=O)(=O)Cc1ccc(Nc2nccc(-c3c(-c4cccc(NC(=O)C5CCCCC5)c4)nn4ncccc34)n2)cc1 | 52 |
| CN1c2ccc(-c3ccc(C(N)=O)cc3)cc2-c2[nH]ncc2S1(=O)=O | 0 |
| CCc1ccc(-c2ccc3c(c2)-c2n[nH]cc2S(=O)(=O)N3C)cc1 | 0 |
| CCn1c(-c2c(N)noc2C)nc2cnccc21 | 0 |

* * *

- Test system: PIP5K1C
- conditionParameters: concentration: 1 μM, replicates: in singlicate; n = 1

| compound | systemTested | unitString | %Inh |
| --- | --- | --- | --- |
| O=C1NC(=O)C(c2ccc(Cl)cc2)=C1Nc1ccc(O)cc1 | PIP5K1C | % | 40 |
| COc1ccc(CSc2nnc(-c3ccc4c(c3)CCO4)o2)cc1 | PIP5K1C | % | 23 |
| Cc1ccc(NC(=O)Nc2ccc(Cl)cc2)cc1-c1ccc(C(=O)Nc2ccncc2)cc1 | PIP5K1C | % | 41 |
| Fc1ccc(-c2nc[nH]c2-c2ccncc2)cc1 | PIP5K1C | % | 0 |
| COc1ccc(Nc2nccc(N3CCC(NC(=O)c4cc5ccccc5s4)C3)n2)cc1 (stereo not shown) | PIP5K1C | % | 40 |
| COC(=O)c1cccc(NC(=O)NC2CCN(c3ccnc(Nc4ccc(F)cc4)n3)C2)c1 (stereo not shown) | PIP5K1C | % | 14 |
| CC(C)c1ccc(O)cc1Nc1ccnc2ccc(C(F)(F)F)cc12 | PIP5K1C | % | 0 |
| CC[C@@H]1CO[C@H](C(=O)Nc2ccccc2)CN1c1cc(-c2ccc3c(N)n[nH]c3c2)nc(NC)n1 | PIP5K1C | % | 39 |
| COC(=O)C(NC(=O)NC1CCN(c2ccnc(Nc3ccc(F)cc3)n2)C1)c1ccccc1 (stereo not shown) | PIP5K1C | % | 41 |
| CS(=O)(=O)CCNCc1nc(-c2ccc3ncnc(Nc4ccc(OCc5ccccc5)c(Cl)c4)c3c2)cs1.Cl | PIP5K1C | % | 52 |
| CNC(=O)c1ccc(C)c(-n2c(C)cc(OCc3ccc(F)cc3F)c(Br)c2=O)c1 | PIP5K1C | % | 1 |
| Cc1ccc(NC(=O)Nc2ccccc2F)cc1-c1ccc(C(=O)Nc2ccncc2)cc1 | PIP5K1C | % | 0 |
| CC(=O)c1c(C)c2cnc(Nc3ccc(N4CCNCC4)cn3)nc2n(C2CCCC2)c1=O | PIP5K1C | % | 0 |
| CS(=O)(=O)Cc1ccc(Nc2nccc(-c3c(-c4cccc(NC(=O)C5CCCCC5)c4)nn4ncccc34)n2)cc1 | PIP5K1C | % | 100 |
| CC(=O)c1c(C)c2cnc(Nc3ccn(C)n3)nc2n(C2CCCC2)c1=O | PIP5K1C | % | 1 |
| COc1ccc(Nc2nccc(N3CCC(NC(=O)C(C)c4ccc(Cl)cc4)C3)n2)cc1 (stereo not shown) | PIP5K1C | % | 52 |
| O=c1cc(N2CCOCC2)nc2n(Cc3ccccc3F)ccn12 | PIP5K1C | % | 31 |
| Cc1nccc(-c2c(-c3ccc(F)cc3)ncn2CCCN2CCOCC2)n1.Cl | PIP5K1C | % | 22 |
| Cc1c(Cn2c3ccccc3n3c(=O)cc(N4CCOCC4)nc23)cccc1C(F)(F)F | PIP5K1C | % | 8 |
